The origin of these recorded values is PubChem BioAssay (NCATS).

- Test system: UISO
- TEST: qHTS assay to identify novel small-molecules to repurpose for Merkel cell carcinoma treatment (AID 1296009); also: % is scaled to controls: 0 for no effect and ±100 for the full control effect; nearly all actives have a fitted effect of over 60% in size
- EXPERIMENTAL_CONTEXT: MCC and control cell lines, CellTiter-Glo viability, 72 h; series mostly up to 46 µM
Inconclusive results are not listed. Calls of active or inactive are those of the source. Calls follow the shape of the dose curve; as a rule, active = well fitted inhibition curve with a large enough effect; inconclusive = small, poorly fitted or top-dose-only effect; inactive = flat fitted curve, though single readings scatter.
READOUT_LABEL: activity change, negative = cytotoxicity

NC(Cc1ccc(Cl)cc1)C(=O)O (centres undefined)    36.5% [at 0.597 µM] (inactive)

Which value of activity change, negative = cytotoxicity has been reported for NCCCNCCSP(=O)(O)O in the records?
-0.378% [at 9.22 µM] (inactive)

Can you handle CN1CCN(CC(=O)N2c3ccccc3C(=O)Nc3cccnc32)CC1 next?
0.833% [at 4.84 µM] (inactive)

Can you handle O=C(O)CN(CCOCCOCCN(CC(=O)O)CC(=O)O)CC(=O)O next?
21.4% [at 0.597 µM] (inactive)

* * *

- TEST: qHTS for differential inhibitors of proliferation of Plasmodium falciparum line D10 (AID 1877);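 also: parasites grown with compound for 72 h before DNA staining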; also: potency is read from the fitted curve at half-maximal effect
- EXPERIMENTAL_CONTEXT: series mostly up to 28.7 µM
Inconclusive results are not listed. Calls of active or inactive are those of the source. Calls come from the whole dose curve; as a rule, active = well fitted curve in the direction sought with a large enough effect; inconclusive = small, poorly fitted or top-dose-only effect, or another doubt; inactive = no such curve, though single readings can be large or run the other way.
READOUT_LABEL: Potency

CNC1(C)C2CCC(C2)C1(C)C (stereo unspecified)    inactive
CC(C)[N+](C)(CCOC(=O)C1c2ccccc2Oc2ccccc21)C(C)C    11.2 µM (active)
CCCCNc1c(C(=O)OCC)c(C)nc2c1cnn2CC    14.1 µM (active)
OC(CCN1CCCCC1)(c1ccccc1)C1CCCCC1 (stereo unspecified)    12.6 µM (active)
Nc1nc(N)c2nc(-c3ccccc3)c(N)nc2n1    2.51 µM (active)
COCCOC(=O)C1=C(C)NC(C)=C(C(=O)OC(C)C)C1c1cccc([N+](=O)[O-])c1 (stereo unspecified)    12.6 µM (active)
N[C@@H](COP(=O)(O)O)C(=O)O    inactive
O=c1[nH]c(=O)n([C@H]2C[C@H](O)[C@@H](CO)O2)cc1Br    inactive
COCC(=O)O[C@]1(CCN(C)CCCc2nc3ccccc3[nH]2)CCc2cc(F)ccc2[C@@H]1C(C)C    8.91 µM (active)
CCC(=O)c1ccc2c(c1)N(CCCN(C)C)c1ccccc1S2    17.8 µM (active)

Which value of Potency has been reported for CN(C)C(=O)Oc1cccc([N+](C)(C)C)c1 in the records?
inactive

* * *

- TARGET_OR_TEST_SYSTEM: Glutaminase kidney isoform, mitochondrial (Homo sapiens) (UniProt O94925)
- Sequence (O94925 whole entry, looked up, canonical isoform): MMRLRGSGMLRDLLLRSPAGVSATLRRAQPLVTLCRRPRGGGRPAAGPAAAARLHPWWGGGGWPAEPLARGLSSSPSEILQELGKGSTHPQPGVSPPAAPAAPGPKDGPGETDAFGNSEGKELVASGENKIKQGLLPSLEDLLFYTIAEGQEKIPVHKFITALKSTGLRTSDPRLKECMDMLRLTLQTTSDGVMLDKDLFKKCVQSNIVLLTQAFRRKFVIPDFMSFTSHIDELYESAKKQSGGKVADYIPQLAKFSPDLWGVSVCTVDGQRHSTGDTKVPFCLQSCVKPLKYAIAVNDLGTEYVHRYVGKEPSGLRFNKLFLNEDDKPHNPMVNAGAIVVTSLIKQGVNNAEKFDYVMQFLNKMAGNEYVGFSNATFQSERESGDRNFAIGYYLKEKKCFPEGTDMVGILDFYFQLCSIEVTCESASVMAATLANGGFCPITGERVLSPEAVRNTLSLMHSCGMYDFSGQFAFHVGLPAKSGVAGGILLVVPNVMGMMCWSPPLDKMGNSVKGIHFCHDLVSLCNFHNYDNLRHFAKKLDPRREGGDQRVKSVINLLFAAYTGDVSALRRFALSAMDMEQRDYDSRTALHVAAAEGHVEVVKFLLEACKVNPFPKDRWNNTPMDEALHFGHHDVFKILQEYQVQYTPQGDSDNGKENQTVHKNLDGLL
- TEST: qHTS for Inhibitors of Glutaminase (GLS): LOPAC Validation (AID 624146);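 also: glutamate product detected by oxidase and peroxidase coupled Amplex red fluorescence gain; % is scaled to controls: 0 for no effect and ±100 for the full control effect; nearly all actives have a fitted effect of over 60% in size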
- EXPERIMENTAL_CONTEXT: glutaminase enzyme activity inhibition; series mostly up to 46.1 µM
Results filed as inconclusive are left out. Calls of active or inactive are those of the source. Calls follow the shape of the dose curve; as a rule, active = well fitted inhibition curve with a large enough effect; inconclusive = small, poorly fitted or top-dose-only effect; inactive = no such curve, though single readings can be large or run the other way.
Select the correct class. Options are active, inactive and nothing else.

Cc1nc2sccn2c(=O)c1CCN1CCC(=C(c2ccc(F)cc2)c2ccc(F)cc2)CC1    inactive
Cc1cc(C)c(/C=C2\C(=O)Nc3ccccc32)[nH]1    inactive
CN=C(NC#N)NCCSCc1nc[nH]c1C    inactive
CCN(Cc1ccncc1)C(=O)C(CO)c1ccccc1 (configuration not stated)    inactive
CCCCNc1c(C(=O)OCC)c(C)nc2c1cnn2CC    inactive

How did this test come out for Fc1ccc(C(c2ccc(F)cc2)N2CCN(C/C=C/c3ccccc3)CC2)cc1 ?
inactive

Can you handle CC(N=C(NC#N)Nc1ccncc1)C(C)(C)C (configuration not stated) next?
inactive

Can you handle C[N+](C)(C)CCOC(=O)CCC(=O)OCC[N+](C)(C)C next?
inactive

Can you handle CC(=O)[C@]1(O)Cc2c(O)c3c(c(O)c2[C@@H](O[C@H]2C[C@H](N)[C@H](O)[C@H](C)O2)C1)C(=O)c1ccccc1C3=O next?
inactive

Can you handle COc1ccc(CN(CCN(C)C)c2ccccn2)cc1 next?
inactive

Can you handle CNCCC(Oc1ccccc1OC)c1ccccc1 (configuration not stated) next?
inactive
